Test system: RIN5F (Rat Insulinoma) cells
experiment.notes: In vitro glucose-dependent insulin secretion (RIN5F cell assay screening protocol)
Type: cell-based
run.conditions: 10 nM test compd., 16.7 mM glucose load
Starred links: 1 amine or outer side, 2 acyl side, 3 side chain; linkers in the order of their positions; H or OH if unused. Non-standard residues stand in square brackets, D forms with d. Residues, ends and D or L forms follow the SMILES beside them. ξ: configuration not given here. ξBip(2'-Et-4'-OMe) = CCc1cc(OC)ccc1-c1ccc(CC(N)C(=O)O)cc1; ξNva(5-(3,5-Me2-Ph)) = Cc1cc(C)cc(CCCC(N)C(=O)O)c1; X10 = O=C(C(CCCc1ccc(F)cc1F)N[*:1])[*:2]; ξbishPhe(2-F) = NC(CCCc1ccccc1F)C(=O)O; ξαMePhe(2-F) = CC(N)(Cc1ccccc1F)C(=O)O; Ac5c = NC1(C(=O)O)CCCC1; Aib = CC(C)(N)C(=O)O
Measured Insulin secretion of individual entries
Report only the number, with the unit pg/µg/h understood.

As a guide, the following entries are already answered.
molecule | measurement.label | result.value
CCc1cc(OC)ccc1-c1ccc(CC(NC(=O)[C@H](CC(=O)O)NC(=O)[C@H](CO)NC(=O)[C@@H](NC(=O)C(C)(Cc2ccccc2F)NC(=O)[C@@H](NC(=O)CNC(=O)[C@H](CCC(N)=O)NC(=O)C(C)(C)NC(=O)[C@@H](N)Cc2c[nH]cn2)[C@@H](C)O)[C@@H](C)O)C(=O)NC(CCCc2ccccc2F)C(N)=O)cc1 (stereo partly shown) [compound 85] (H-H[Aib]QGT[ξαMePhe(2-F)]TSD[ξBip(2'-Et-4'-OMe)][ξbishPhe(2-F)]-NH2) | Insulin secretion | 27.6
CCc1cc(OC)ccc1-c1ccc(CC(NC(=O)[C@H](CC(=O)O)NC(=O)[C@H](CO)NC(=O)[C@@H](NC(=O)[C@H](Cc2ccccc2)NC(=O)[C@@H](NC(=O)CNC(=O)C(CCC#N)NC(=O)C(C)(C)NC(=O)[C@@H](N)Cc2c[nH]cn2)[C@@H](C)O)[C@@H](C)O)C(=O)NC(CCCc2ccccc2C(F)(F)F)C(N)=O)cc1 (single isomer, unassigned) [compound 79] | Insulin secretion | 36.5
CCc1cc(OC)ccc1-c1ccc(CC(NC(=O)[C@H](CC(=O)O)NC(=O)[C@H](CO)NC(=O)[C@@H](NC(=O)[C@H](Cc2ccccc2)NC(=O)[C@@H](NC(=O)CNC(=O)[C@H](CCC(N)=O)NC(=O)C2(NC(=O)[C@@H](N)Cc3c[nH]cn3)CCCC2)[C@@H](C)O)[C@@H](C)O)C(=O)NC(CCCc2cc(C)cc(C)c2)C(N)=O)cc1 (stereo partly shown) [compound 26] (H-H[Ac5c]QGTFTSD[ξBip(2'-Et-4'-OMe)][ξNva(5-(3,5-Me2-Ph))]-NH2) | Insulin secretion | 36.6
CCc1cc(OC)ccc1-c1ccc(CC(NC(=O)[C@H](CC(=O)O)NC(=O)[C@H](CO)NC(=O)[C@@H](NC(=O)C(C)(Cc2ccccc2F)NC(=O)[C@@H](NC(=O)CNC(=O)C(CCC#N)NC(=O)C(C)(C)NC(=O)[C@@H](N)Cc2c[nH]cn2)[C@@H](C)O)[C@H](C)O)C(=O)NC(CCCc2ccccc2F)C(N)=O)cc1 (single isomer, unassigned) [compound 120] | Insulin secretion | 36.2

Request: # input molecule: CCc1cc(OC)ccc1-c1ccc(CC(NC(=O)[C@H](CC(=O)O)NC(=O)[C@H](CO)NC(=O)[C@@H](NC(=O)[C@H](Cc2ccccc2)NC(=O)[C@@H](NC(=O)CNC(=O)[C@H](CCC(N)=O)NC(=O)[C@H](CO)NC(=O)[C@@H](N)Cc2c[nH]cn2)[C@@H](C)O)[C@@H](C)O)C(=O)NC(CCCc2ccccc2Cl)C(N)=O)cc1 (single isomer, unassigned) [compound 50] ; wanted: its Insulin secretion
Response: 35.6

Request: Which Insulin secretion value is on record for CCc1cc(OC)ccc1-c1ccc(CC(NC(=O)[C@H](CC(=O)O)NC(=O)[C@H](CO)NC(=O)[C@@H](NC(=O)C(C)(Cc2ccccc2F)NC(=O)[C@@H](NC(=O)CNC(=O)[C@H](CCC(N)=O)NC(=O)C(C)(C)NC(=O)[C@@H](N)Cc2c[nH]cn2)[C@@H](C)O)[C@@H](C)O)C(=O)NC(CCCc2ccc(F)cc2F)C(N)=O)cc1 (stereo partly shown) [compound 86] (H-H[Aib]QGT[ξαMePhe(2-F)]TSD[ξBip(2'-Et-4'-OMe)][X10]-NH2) ?
Response: 28.1

Request: Report Insulin secretion for CCc1cc(OC)ccc1-c1ccc(CC(NC(=O)[C@H](CC(=O)O)NC(=O)[C@H](CO)NC(=O)[C@@H](NC(=O)C(C)(Cc2ccccc2F)NC(=O)[C@@H](NC(=O)CNC(=O)[C@H](CCC(N)=O)NC(=O)C(C)(C)NC(=O)[C@@H](N)Cc2c[nH]cn2)[C@@H](C)O)[C@@H](C)O)C(=O)NC(CCCc2ccc(Cl)cc2C)C(N)=O)cc1 (single isomer, unassigned) [compound 40] please.
Response: 28.4

Request: I am curious: what Insulin secretion value has been reported for CCc1cc(OC)ccc1-c1ccc(CC(NC(=O)[C@H](CC(=O)O)NC(=O)[C@H](CO)NC(=O)[C@@H](NC(=O)C(C)(Cc2ccccc2F)NC(=O)[C@@H](NC(=O)CNC(=O)C(CCC#N)NC(=O)C(C)(C)NC(=O)[C@@H](N)Cc2c[nH]cn2)[C@H](C)O)[C@H](C)O)C(=O)N(C)C(CCCc2ccccc2F)C(N)=O)cc1 (single isomer, unassigned) [compound 132] ?
Response: 28.8

Request: Look at this molecule and give its reported Insulin secretion. CCc1cc(OC)ccc1-c1ccc(CC(NC(=O)[C@H](CC(=O)O)NC(=O)[C@H](CO)NC(=O)[C@@H](NC(=O)[C@H](Cc2ccccc2)NC(=O)[C@@H](NC(=O)CNC(=O)C(CCC#N)NC(=O)C(C)(C)NC(=O)[C@@H](N)Cc2c[nH]cn2)[C@@H](C)O)[C@@H](C)O)C(=O)NC(CCCc2ccc(F)cc2F)C(N)=O)cc1 (single isomer, unassigned) [compound 78]
Response: 36.7

Request: May I ask what Insulin secretion has been recorded for CCc1cc(OC)ccc1-c1ccc(CC(NC(=O)[C@H](CC(=O)O)NC(=O)[C@H](CO)NC(=O)[C@@H](NC(=O)[C@H](Cc2ccccc2)NC(=O)[C@@H](NC(=O)CNC(=O)C(CCC#N)NC(=O)C(C)(C)NC(=O)[C@@H](N)Cc2c[nH]cn2)[C@@H](C)O)[C@@H](C)O)C(=O)NC(CCCc2ccccc2F)C(N)=O)cc1 (single isomer, unassigned) [compound 77] ?
Response: 35.6
